Tgt: GSK3B (human) (UniProt P49841)
Sequence (P49841 whole entry, looked up): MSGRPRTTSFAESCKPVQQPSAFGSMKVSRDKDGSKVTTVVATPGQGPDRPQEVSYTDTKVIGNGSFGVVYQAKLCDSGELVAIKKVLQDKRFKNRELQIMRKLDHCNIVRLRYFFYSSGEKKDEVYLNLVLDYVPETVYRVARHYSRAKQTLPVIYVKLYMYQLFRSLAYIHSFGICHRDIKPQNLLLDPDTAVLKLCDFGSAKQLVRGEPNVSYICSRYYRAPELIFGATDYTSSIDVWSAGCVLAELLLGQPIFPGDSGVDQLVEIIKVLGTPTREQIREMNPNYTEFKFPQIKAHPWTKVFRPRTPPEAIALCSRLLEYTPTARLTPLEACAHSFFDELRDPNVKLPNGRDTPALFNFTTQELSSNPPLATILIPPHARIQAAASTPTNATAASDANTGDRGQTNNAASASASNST
Assay Remarks: Caliper, Mobility shift assay off-chip
Reported Conditions: compound 1.0 µM
Measure Name: inhibition (%)
One number for each entry, in %.

Some solved entries appear below for comparison.
>  <Molecule>
Cn1cc(-c2cnc3ccc4ccc(CS(=O)(=O)CCc5ccccn5)cc4c(=O)c3c2)cn1

>  <inhibition [%]>
3

$$$$
>  <Molecule>
Cn1cc(-c2cnc3ccc4ccc(CS(=O)(=O)NCC5CCCCN5)cc4c(=O)c3c2)cn1 (stereo not given)

>  <inhibition [%]>
2

$$$$
>  <Molecule>
Cn1cc(-c2cnc3ccc4ccc(CS(N)(=O)=O)cc4c(=O)c3c2)cn1

>  <inhibition [%]>
9.3

$$$$
>  <Molecule>
O=C(CCc1ccc2ccc3ncc(C4CCNCC4)cc3c(=O)c2c1)NCc1ccccn1

>  <inhibition [%]>
-3.3

$$$$

API: the following record is the query input.
Look at this molecule and give its reported inhibition. `CN(c1ccc2ccc3ncc(-c4cnn(C)c4)cc3c(=O)c2c1)S(=O)(=O)NCc1ccccn1`
4.8

----------
Tgt: PRKCQ (human) (UniProt Q04759)
Sequence (Q04759 whole entry, looked up): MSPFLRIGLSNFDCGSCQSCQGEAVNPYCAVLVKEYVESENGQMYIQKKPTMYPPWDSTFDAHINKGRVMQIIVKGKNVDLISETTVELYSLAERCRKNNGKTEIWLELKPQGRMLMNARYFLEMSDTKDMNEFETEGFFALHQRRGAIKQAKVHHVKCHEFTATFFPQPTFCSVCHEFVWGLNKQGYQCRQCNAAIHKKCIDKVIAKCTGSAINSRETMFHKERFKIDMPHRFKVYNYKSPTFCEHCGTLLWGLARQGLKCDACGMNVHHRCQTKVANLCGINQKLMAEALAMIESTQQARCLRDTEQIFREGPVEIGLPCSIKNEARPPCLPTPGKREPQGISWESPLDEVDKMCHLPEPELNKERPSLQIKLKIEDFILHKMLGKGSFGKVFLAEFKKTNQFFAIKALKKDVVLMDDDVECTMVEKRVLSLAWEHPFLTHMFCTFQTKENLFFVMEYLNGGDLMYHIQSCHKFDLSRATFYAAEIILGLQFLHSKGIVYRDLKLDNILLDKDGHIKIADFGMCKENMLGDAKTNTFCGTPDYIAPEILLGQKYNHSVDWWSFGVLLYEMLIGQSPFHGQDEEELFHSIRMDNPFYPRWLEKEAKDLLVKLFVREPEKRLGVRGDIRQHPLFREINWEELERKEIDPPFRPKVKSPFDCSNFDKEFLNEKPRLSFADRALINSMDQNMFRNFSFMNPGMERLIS
Assay Remarks: Caliper, Mobility shift assay off-chip
Reported Conditions: compound 1.0 µM
Kindly state inhibition for each of the entries shown.
Answers are plain numbers, in %.

Field: example entries. Status: answers known.
>  <Compound>
Cn1cc(-c2cnc3ccc4ccc(CS(=O)(=O)NCC5CCCCN5)cc4c(=O)c3c2)cn1 (centres undefined)

>  <Measure Unit>
%

>  <inhibition>
2.1

$$$$
>  <Compound>
CN(c1ccc2ccc3ncc(-c4cnn(C)c4)cc3c(=O)c2c1)S(=O)(=O)NCc1ccccn1

>  <Measure Unit>
%

>  <inhibition>
-2

$$$$
>  <Compound>
O=C(CCc1ccc2ccc3ncc(C4CCNCC4)cc3c(=O)c2c1)NCc1ccccn1

>  <Measure Unit>
%

>  <inhibition>
0.5

$$$$

Now turn to the next compound.
Which measured inhibition belongs to `Cn1cc(-c2cnc3ccc4ccc(CS(=O)(=O)CCc5ccccn5)cc4c(=O)c3c2)cn1` , tested on PRKCQ (human) (UniProt Q04759)?
-19.7

----------
Tgt: FES (human)
pIC50: −log10 of the molar value.
Measure Name: pIC50

Requested read-out pIC50, target or system FES (human), entry `Cn1cc(-c2cnc3ccc4ccc(CS(=O)(=O)NCc5ccccn5)cc4c(=O)c3c2)cn1`
< 5.00

----------
Tgt: PDGFRA (human) (UniProt P16234)
Sequence (P16234 whole entry, looked up): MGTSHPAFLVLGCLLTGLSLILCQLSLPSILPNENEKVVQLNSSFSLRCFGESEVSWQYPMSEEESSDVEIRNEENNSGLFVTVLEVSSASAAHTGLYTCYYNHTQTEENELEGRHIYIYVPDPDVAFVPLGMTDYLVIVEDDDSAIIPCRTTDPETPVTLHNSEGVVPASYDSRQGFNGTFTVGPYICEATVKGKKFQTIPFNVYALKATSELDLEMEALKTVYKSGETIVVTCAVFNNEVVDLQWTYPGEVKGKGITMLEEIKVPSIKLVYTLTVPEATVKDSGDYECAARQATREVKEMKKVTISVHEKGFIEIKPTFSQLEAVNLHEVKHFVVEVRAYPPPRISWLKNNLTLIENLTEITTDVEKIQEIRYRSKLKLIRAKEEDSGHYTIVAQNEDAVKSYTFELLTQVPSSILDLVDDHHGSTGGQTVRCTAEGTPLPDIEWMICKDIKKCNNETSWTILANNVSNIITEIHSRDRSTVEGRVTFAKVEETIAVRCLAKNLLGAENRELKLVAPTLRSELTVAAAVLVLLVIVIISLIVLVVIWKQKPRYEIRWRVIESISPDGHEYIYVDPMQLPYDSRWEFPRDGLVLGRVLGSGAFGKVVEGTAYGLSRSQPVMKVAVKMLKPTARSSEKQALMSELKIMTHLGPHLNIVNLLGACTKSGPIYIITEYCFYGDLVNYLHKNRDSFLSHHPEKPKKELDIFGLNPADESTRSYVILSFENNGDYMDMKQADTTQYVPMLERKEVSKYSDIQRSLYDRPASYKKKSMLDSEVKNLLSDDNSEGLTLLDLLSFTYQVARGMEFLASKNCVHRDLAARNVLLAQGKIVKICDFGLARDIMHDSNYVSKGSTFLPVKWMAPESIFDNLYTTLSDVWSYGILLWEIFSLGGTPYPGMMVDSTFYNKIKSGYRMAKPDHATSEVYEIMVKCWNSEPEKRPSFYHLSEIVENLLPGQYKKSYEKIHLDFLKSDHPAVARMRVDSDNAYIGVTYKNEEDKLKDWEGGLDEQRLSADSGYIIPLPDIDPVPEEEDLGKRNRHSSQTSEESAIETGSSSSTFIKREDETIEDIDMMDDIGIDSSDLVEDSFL
Assay Remarks: Caliper, Mobility shift assay off-chip
Reported Conditions: compound 0.1 µM
Provide the recorded inhibition for the entries that follow.
Answers are plain numbers, in %.

Examples with answers:
>  <Molecule>
Cn1cc(-c2cnc3ccc4ccc(CS(=O)(=O)CCc5ccccn5)cc4c(=O)c3c2)cn1

>  <inhibition, %>
-13

$$$$
>  <Molecule>
CN(c1ccc2ccc3ncc(-c4cnn(C)c4)cc3c(=O)c2c1)S(=O)(=O)NCc1ccccn1

>  <inhibition, %>
-13.5

$$$$

Need inhibition for each of these molecules.
1. O=c1c2cc(CS(=O)(=O)NCc3ccccn3)ccc2ccc2ncc(C3CCNCC3)cc12
2. Cn1cc(-c2cnc3ccc4ccc(CS(N)(=O)=O)cc4c(=O)c3c2)cn1
3. Cn1cc(-c2cnc3ccc4ccc(CS(=O)(=O)NC5CCCCC5)cc4c(=O)c3c2)cn1

1: 4.1; 2: -19.1; 3: 9

Quick one: give me inhibition for each item below, same order please.
1. Cn1cc(-c2cnc3ccc4ccc(CS(=O)(=O)NCC5CCCCN5)cc4c(=O)c3c2)cn1 (configuration not stated)
2. O=C(CCc1ccc2ccc3ncc(C4CCNCC4)cc3c(=O)c2c1)NCc1ccccn1

1: 17.5; 2: 1.5

----------
For each record, write down the corresponding inhibition.
Tgt: MAPK11 (human) (UniProt Q15759)
Sequence (Q15759 whole entry, looked up): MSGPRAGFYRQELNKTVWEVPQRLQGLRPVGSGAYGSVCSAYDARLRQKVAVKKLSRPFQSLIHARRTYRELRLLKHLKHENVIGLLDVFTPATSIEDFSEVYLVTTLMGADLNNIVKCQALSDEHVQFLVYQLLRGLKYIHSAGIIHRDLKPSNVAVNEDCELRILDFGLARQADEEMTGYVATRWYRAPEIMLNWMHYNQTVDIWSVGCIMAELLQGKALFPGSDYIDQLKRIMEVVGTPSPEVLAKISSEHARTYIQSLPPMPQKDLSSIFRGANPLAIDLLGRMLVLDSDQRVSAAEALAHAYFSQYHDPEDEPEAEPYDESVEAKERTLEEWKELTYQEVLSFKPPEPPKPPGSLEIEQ
Assay Remarks: Caliper, Mobility shift assay off-chip
Reported Conditions: compound 0.1 µM
Answers are plain numbers, in %.

>  <Compound>
Cn1cc(-c2cnc3ccc4ccc(CS(=O)(=O)NCC5CCCCN5)cc4c(=O)c3c2)cn1 (configuration not stated)

>  <Tgt>
MAPK11 (human) (UniProt Q15759)

>  <Measure Name>
inhibition

>  <Numeric Value>
-1.4

$$$$

List the reported inhibition of each compound below.
1. Cn1cc(-c2cnc3ccc4ccc(CS(N)(=O)=O)cc4c(=O)c3c2)cn1
2. Cn1cc(-c2cnc3ccc4ccc(CS(=O)(=O)NC5CCCCC5)cc4c(=O)c3c2)cn1
3. O=c1c2cc(CS(=O)(=O)NCc3ccccn3)ccc2ccc2ncc(C3CCNCC3)cc12
4. CN(c1ccc2ccc3ncc(-c4cnn(C)c4)cc3c(=O)c2c1)S(=O)(=O)NCc1ccccn1

-1.8
4.9
0.7
-0.1

Each compound below has a reported value. Please supply its inhibition.
1. O=C(CCc1ccc2ccc3ncc(C4CCNCC4)cc3c(=O)c2c1)NCc1ccccn1
2. Cn1cc(-c2cnc3ccc4ccc(CS(=O)(=O)CCc5ccccn5)cc4c(=O)c3c2)cn1

1: 0.6; 2: -11

----------
System: FLT3 (human), P36888 [D835Y]
Assay Remarks: Caliper, Mobility shift assay off-chip
Reported Conditions: compound 0.1 µM
Measure Name: inhibition (%)
Numbers only, in %.

>  <Compound>
Cn1cc(-c2cnc3ccc4ccc(CS(N)(=O)=O)cc4c(=O)c3c2)cn1

>  <Measure Name>
inhibition

>  <Numeric Value>
19.1

$$$$
>  <Compound>
O=c1c2cc(CS(=O)(=O)NCc3ccccn3)ccc2ccc2ncc(C3CCNCC3)cc12

>  <Measure Name>
inhibition

>  <Numeric Value>
16.7

$$$$
>  <Compound>
Cn1cc(-c2cnc3ccc4ccc(CS(=O)(=O)NCC5CCCCN5)cc4c(=O)c3c2)cn1 (configuration not stated)

>  <Measure Name>
inhibition

>  <Numeric Value>
-0.3

$$$$

For every record below, what is its inhibition?
1. CN(c1ccc2ccc3ncc(-c4cnn(C)c4)cc3c(=O)c2c1)S(=O)(=O)NCc1ccccn1
2. Cn1cc(-c2cnc3ccc4ccc(CS(=O)(=O)NC5CCCCC5)cc4c(=O)c3c2)cn1
3. O=C(CCc1ccc2ccc3ncc(C4CCNCC4)cc3c(=O)c2c1)NCc1ccccn1
4. Cn1cc(-c2cnc3ccc4ccc(CS(=O)(=O)CCc5ccccn5)cc4c(=O)c3c2)cn1

[49.8, 6.8, -1, 2.5]

----------
Tgt: CHEK2 (human) (UniProt O96017)
Sequence (O96017 whole entry, looked up): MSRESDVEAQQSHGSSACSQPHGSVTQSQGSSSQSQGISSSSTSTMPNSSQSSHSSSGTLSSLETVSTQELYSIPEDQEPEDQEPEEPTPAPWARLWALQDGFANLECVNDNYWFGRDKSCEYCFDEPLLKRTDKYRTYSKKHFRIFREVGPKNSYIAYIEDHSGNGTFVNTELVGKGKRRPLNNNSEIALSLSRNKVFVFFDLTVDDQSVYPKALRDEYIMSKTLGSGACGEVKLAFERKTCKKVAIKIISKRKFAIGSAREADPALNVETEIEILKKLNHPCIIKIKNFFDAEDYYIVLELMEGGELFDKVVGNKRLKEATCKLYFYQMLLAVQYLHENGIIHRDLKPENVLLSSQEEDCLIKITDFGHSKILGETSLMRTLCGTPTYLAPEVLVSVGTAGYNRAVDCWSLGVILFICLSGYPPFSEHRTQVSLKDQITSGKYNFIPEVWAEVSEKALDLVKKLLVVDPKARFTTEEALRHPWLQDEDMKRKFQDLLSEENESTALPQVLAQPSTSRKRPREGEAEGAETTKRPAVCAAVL
Assay Remarks: Caliper, Mobility shift assay off-chip
Reported Conditions: compound 1.0 µM
Kindly supply the reported inhibition values for the records listed here.
Answers are plain numbers, in %.

>  <Compound>
CN(c1ccc2ccc3ncc(-c4cnn(C)c4)cc3c(=O)c2c1)S(=O)(=O)NCc1ccccn1

>  <Tgt>
CHEK2 (human) (UniProt O96017)

>  <Measure Name>
inhibition

>  <Numeric Value>
6.9

$$$$
>  <Compound>
O=C(CCc1ccc2ccc3ncc(C4CCNCC4)cc3c(=O)c2c1)NCc1ccccn1

>  <Tgt>
CHEK2 (human) (UniProt O96017)

>  <Measure Name>
inhibition

>  <Numeric Value>
1.2

$$$$
>  <Compound>
Cn1cc(-c2cnc3ccc4ccc(CS(N)(=O)=O)cc4c(=O)c3c2)cn1

>  <Tgt>
CHEK2 (human) (UniProt O96017)

>  <Measure Name>
inhibition

>  <Numeric Value>
0.7

$$$$
>  <Compound>
Cn1cc(-c2cnc3ccc4ccc(CS(=O)(=O)NCC5CCCCN5)cc4c(=O)c3c2)cn1 (stereo not given)

>  <Tgt>
CHEK2 (human) (UniProt O96017)

>  <Measure Name>
inhibition

>  <Numeric Value>
-0.5

$$$$

With those in mind, consider the next compound.
Query (compound): `Cn1cc(-c2cnc3ccc4ccc(CS(=O)(=O)CCc5ccccn5)cc4c(=O)c3c2)cn1` ; field requested: inhibition
4.5

----------
Tgt: CSNK1A1 (human) (UniProt P48729)
Sequence (P48729 whole entry, looked up): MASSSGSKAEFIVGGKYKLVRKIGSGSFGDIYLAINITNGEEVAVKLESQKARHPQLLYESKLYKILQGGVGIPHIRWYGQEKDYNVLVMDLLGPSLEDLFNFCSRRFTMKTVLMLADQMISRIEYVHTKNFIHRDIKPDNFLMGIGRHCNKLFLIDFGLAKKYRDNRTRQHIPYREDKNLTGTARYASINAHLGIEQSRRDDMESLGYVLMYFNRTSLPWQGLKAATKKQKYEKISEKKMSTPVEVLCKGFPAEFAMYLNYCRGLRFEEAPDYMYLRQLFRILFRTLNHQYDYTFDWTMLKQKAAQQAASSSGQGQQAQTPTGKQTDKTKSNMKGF
Assay Remarks: Caliper, Mobility shift assay off-chip
Reported Conditions: compound 0.1 µM
Field: inhibition. Provide a value for each of the molecules that follow.
Give bare numbers, in %.

>  <Molecule>
O=C(CCc1ccc2ccc3ncc(C4CCNCC4)cc3c(=O)c2c1)NCc1ccccn1

>  <Measure Name>
inhibition

>  <Measure Unit>
%

>  <Numeric Value>
5

$$$$

Field: inhibition. Fill in for each record below.
1. Cn1cc(-c2cnc3ccc4ccc(CS(N)(=O)=O)cc4c(=O)c3c2)cn1
2. Cn1cc(-c2cnc3ccc4ccc(CS(=O)(=O)NC5CCCCC5)cc4c(=O)c3c2)cn1
3. Cn1cc(-c2cnc3ccc4ccc(CS(=O)(=O)CCc5ccccn5)cc4c(=O)c3c2)cn1
4. O=c1c2cc(CS(=O)(=O)NCc3ccccn3)ccc2ccc2ncc(C3CCNCC3)cc12
5. Cn1cc(-c2cnc3ccc4ccc(CS(=O)(=O)NCC5CCCCN5)cc4c(=O)c3c2)cn1 (configuration not stated)
6. CN(c1ccc2ccc3ncc(-c4cnn(C)c4)cc3c(=O)c2c1)S(=O)(=O)NCc1ccccn1

1. -2.8
2. 10.2
3. -8.6
4. -0.5
5. -5
6. -7.8
